subject of test: HIV-1 protease (Human immunodeficiency virus type 1 group M subtype B, UniProt P04585)
Construct: The protease (or proteinase), consisting of only 99 amino acids, is among the smallest enzymes known
protocol summary: In vitro HIV protease inhibitory assay (HIV Protease FITC Assay)
Assay type: biochemical
run conditions: read-out: HIV-1 FITC Ki
pKi: −log10 of the molar value.
// f strictly below 7 in pKi; t otherwise

molecule	answer label
O=c1oc(CCC2OCCO2)cc(O)c1C(c1ccccc1)C1CC1 (stereo not drawn)	f
CCCC1(CCCc2ccccc2)CC(O)=C(C(c2ccccc2)c2ccccc2)C(=O)O1 (stereo not drawn)	t
CCC(Cc1ccco1)c1cc(O)c(C(c2ccccc2)C2CC2)c(=O)o1 (stereo not drawn)	t
CCCC(CC1CCCOC1)c1cc(O)c(C(c2ccccc2)C2CC2)c(=O)o1 (stereo not drawn)	t
CCC(Cc1ccc(Cl)s1)c1cc(O)c(C(c2ccccc2)C2CC2)c(=O)o1 (stereo not drawn)	t

Here's the next entry for you.
Query: Determine whether measured pKi meets or exceeds 7 for CCCc1oc(=O)c(C(c2ccccc2)C2CC2)c(O)c1CCOCCOC (stereo not drawn)
Reply: f

###

Give measured inhibition at 10 µM for each item. Keep answers brief.
subject of test: HIV-1 protease (Human immunodeficiency virus type 1 group M subtype B, UniProt P04585)
Construct: The protease (or proteinase), consisting of only 99 amino acids, is among the smallest enzymes known
protocol summary: In vitro HIV protease inhibitory assay (HIV Protease FITC Assay)
Format: biochemical
run conditions: HIV-1 Dose 10.000 uM; read-out: HIV-1 Protease % Inhib
Answers are plain numbers, in %.

Please review the entries below; each comes with its answer.
molecule	inhibition at 10 µM [%]
CCC(Cc1ccccc1)c1cc(O)c(C(c2cccc(NS(=O)(=O)c3ccc(C)cc3)c2)C2CC2)c(=O)o1 (stereo not shown) [Example 246]	92.7
CCC(Cc1ccccc1Cl)c1cc(O)c(C(c2ccccc2)C2CC2)c(=O)o1 (stereo not shown) [Example 157]	83.5
CCC(Cc1ccccc1)c1cc(O)c(C(c2cccc(NC(=O)NS(=O)(=O)c3ccccc3)c2)C2CC2)c(=O)o1 (stereo not shown) [Example 216]	91.5

Fill in inhibition at 10 µM for each of the 4 molecules listed.
1. CCC(Cc1ccccc1)c1cc(O)c(C(c2cccc(NC(=O)Nc3ccc(Br)cc3)c2)C2CC2)c(=O)o1 (stereo not shown) [Example 215]
2. CCC(CC1CCCCC1)c1cc(O)c(C(c2ccccc2)C2CC2)c(=O)o1 (stereo not shown) [Example 85]
3. CCCC1(CCc2ccccc2)CC(O)=C(/C(=C/c2ccccc2)c2ccccc2)C(=O)O1 (stereo not shown) [Example 173]
4. CCC(Cc1ccccc1)c1cc(O)c(C(c2cccc(NC(=O)Nc3ccc(OC)cc3)c2)C2CC2)c(=O)o1 (stereo not shown) [Example 214]

Reply:
1. 23.1
2. 77
3. 39.2
4. 79.5

###

subject of test: HIV-1 protease (Human immunodeficiency virus type 1 group M subtype B, UniProt P04585)
Construct: The protease (or proteinase), consisting of only 99 amino acids, is among the smallest enzymes known
protocol summary: In vitro HIV protease inhibitory assay (HIV Protease FITC Assay)
Assay type: biochemical
run conditions: HIV-1 Dose 0.370 uM; read-out: HIV-1 Protease % Inhib
property label: inhibition at 0.37 µM (%)
Answers are plain numbers, in %.

Please review the entries below; each comes with its answer.
molecule	value observed
CCCC1(CCCc2ccccc2)CC(O)=C(C(c2ccccc2)c2ccccc2)C(=O)O1 (centres unmarked) [Example 242]	19.9
C=CC(C1=C(O)CC(CCc2ccccc2)(CC(C)C)OC1=O)c1ccccc1 (centres unmarked) [Example 233]	28.9

Fill in inhibition at 0.37 µM for each of the 4 molecules listed.
1. CCC(Cc1ccccc1)c1cc(O)c(C(c2cccc(NS(=O)(=O)c3ccc(C)cc3)c2)C2CC2)c(=O)o1 (centres unmarked) [Example 246]
2. O=c1oc(C(CC2CC2)CC2CC2)cc(O)c1C(Cc1ccccc1)Cc1ccccc1 [Example 79]
3. CCC(Cc1ccccc1)c1cc(O)c(C(c2cccc(NS(=O)(=O)c3cccc4cccnc34)c2)C2CC2)c(=O)o1 (centres unmarked) [Example 229]
4. CCC(Cc1ccccc1)c1cc(O)c(C(c2cccc(NC(=O)Cc3cccnc3)c2)C2CC2)c(=O)o1 (centres unmarked) [Example 248]

Reply:
[60.1, 76.7, 95.9, 31.6]

Briefly, inhibition at 0.37 µM measured for CCCC(CC1CCCOC1)c1cc(O)c(C(c2ccccc2)C2CC2)c(=O)o1 (centres unmarked) [Example 72] : 68.4

###

subject of test: HIV-1 protease (Human immunodeficiency virus type 1 group M subtype B)
Construct: The protease (or proteinase), consisting of only 99 amino acids, is among the smallest enzymes known
protocol summary: In vitro HIV protease inhibitory assay (HIV Protease FITC Assay)
Assay type: biochemical
run conditions: HIV-1 Dose 1.100 uM; read-out: HIV-1 Protease % Inhib
// Not fulfilled strictly below 70% in inhibition at 1.1 µM; Fulfilled otherwise

compound	answer label
CC(C)CC1(CCc2ccccc2)CC(O)=C(C(c2ccccc2)c2ccccc2)C(=O)O1 (centres unmarked)	Not fulfilled

Query: Determine whether measured inhibition at 1.1 µM meets or exceeds 70% for CC(C)Cc1cc(O)c(C(c2ccccc2)C2CC2)c(=O)o1 (centres unmarked)
Reply: Not fulfilled

Query: Determine whether measured inhibition at 1.1 µM meets or exceeds 70% for CCC(CCCl)c1cc(O)c(C(c2ccccc2)C2CC2)c(=O)o1 (centres unmarked)
Reply: Fulfilled

Query: Determine whether measured inhibition at 1.1 µM meets or exceeds 70% for CCCC1(CCCc2ccccc2)CC(O)=C(C(c2ccccc2)c2ccccc2)C(=O)O1 (centres unmarked)
Reply: Not fulfilled

Query: Determine whether measured inhibition at 1.1 µM meets or exceeds 70% for CCC(Cc1ccccc1)c1cc(O)c(C(c2cccc(NC(=O)Cc3ccccn3)c2)C2CC2)c(=O)o1 (centres unmarked)
Reply: Fulfilled

Query: Determine whether measured inhibition at 1.1 µM meets or exceeds 70% for CCC(C1=C(O)CC2(CCC(O)CC2)OC1=O)c1ccccc1 (centres unmarked)
Reply: Not fulfilled

Query: Determine whether measured inhibition at 1.1 µM meets or exceeds 70% for CCCC1(Cc2ccccc2)CC(O)=C(C(CCc2ccccc2)c2ccccc2)C(=O)O1 (centres unmarked)
Reply: Not fulfilled

Query: Determine whether measured inhibition at 1.1 µM meets or exceeds 70% for CCCC1(Cc2ccccc2)CC(O)=C(C(C=Cc2ccccc2)c2ccccc2)C(=O)O1 (centres unmarked)
Reply: Not fulfilled

Query: Determine whether measured inhibition at 1.1 µM meets or exceeds 70% for O=c1oc(CC(O)c2ccoc2)cc(O)c1C(c1ccccc1)C1CC1 (centres unmarked)
Reply: Not fulfilled

Query: Determine whether measured inhibition at 1.1 µM meets or exceeds 70% for CCC(Cc1ccccc1)c1cc(O)c(C2(c3ccccc3)CCC2)c(=O)o1 (centres unmarked)
Reply: Not fulfilled

Query: Determine whether measured inhibition at 1.1 µM meets or exceeds 70% for Cc1ccc(C(O)Cc2cc(O)c(C(c3ccccc3)C3CC3)c(=O)o2)cc1 (centres unmarked)
Reply: Not fulfilled

Query: Determine whether measured inhibition at 1.1 µM meets or exceeds 70% for CCC(Cc1ccccc1)c1cc(O)c(C(c2cccc(NS(=O)(=O)CC)c2)C2CC2)c(=O)o1 (centres unmarked)
Reply: Fulfilled

Query: Determine whether measured inhibition at 1.1 µM meets or exceeds 70% for `O=C1OC(CCc2ccccc2)(CCc2ccccc2)CC(O)=C1C(c1ccccc1)c1ccccc1`
Reply: Not fulfilled

Query: Determine whether measured inhibition at 1.1 µM meets or exceeds 70% for CCC(CCCN1CCOCC1)c1cc(O)c(C(c2ccccc2)C2CC2)c(=O)o1 (centres unmarked)
Reply: Not fulfilled

Query: Determine whether measured inhibition at 1.1 µM meets or exceeds 70% for CCC(CC1COc2ccccc2O1)c1cc(O)c(C(c2ccccc2)C2CC2)c(=O)o1 (centres unmarked)
Reply: Not fulfilled

Query: Determine whether measured inhibition at 1.1 µM meets or exceeds 70% for C=CC(C1=C(O)CC2(CCCCCCC2)OC1=O)c1ccccc1 (centres unmarked)
Reply: Not fulfilled

###

subject of test: HIV-1 protease (Human immunodeficiency virus type 1 group M subtype B, UniProt P04585)
Construct: The protease (or proteinase), consisting of only 99 amino acids, is among the smallest enzymes known
protocol summary: In vitro HIV protease inhibitory assay (HIV Protease FITC Assay)
Format: biochemical
run conditions: HIV-1 Dose 1.100 uM; read-out: HIV-1 Protease % Inhib
property label: inhibition at 1.1 µM (%)
Give bare numbers, in %.

Please review the entries below; each comes with its answer.
compound	result units	value observed
CCC(Cc1cccc(Cl)c1)c1cc(O)c(C(c2ccccc2)C2CC2)c(=O)o1 (centres unmarked)	%	64.4
O=c1oc(C(CC2CC2)CC2CC2)cc(O)c1C(Cc1ccccc1)Cc1ccccc1	%	106
CCC(Cc1ccccc1)c1cc(O)c(C(c2cccc(NC(=O)[C@H](C)NC(=O)OC(C)(C)C)c2)C2CC2)c(=O)o1 (some centres unmarked)	%	87.3
O=c1oc(CC(O)c2ccc(Cl)cc2)cc(O)c1C(c1ccccc1)C1CC1 (centres unmarked)	%	46.9
CCC(Cc1cccc(Br)c1)c1cc(O)c(C(c2ccccc2)C2CC2)c(=O)o1 (centres unmarked)	%	56.4

Fill in inhibition at 1.1 µM for each of the 2 compounds listed.
1. CCC(Cc1ccccc1)c1cc(O)c(C(c2cccc(NC(=O)NS(=O)(=O)c3ccccc3)c2)C2CC2)c(=O)o1 (centres unmarked)
2. CCC(Cc1ccccc1)c1cc(O)c(C(c2cccc(NC(=O)CCn3ccc4ccccc43)c2)C2CC2)c(=O)o1 (centres unmarked)

Reply:
1: 61.1; 2: 48.6

Fill in inhibition at 1.1 µM for each of the 4 compounds listed.
1. CCCC1(CCCc2ccccc2)CC(O)=C(C(CCc2ccccc2)c2ccccc2)C(=O)O1 (centres unmarked)
2. CCC(Cc1ccccc1Cl)c1cc(O)c(C(c2ccccc2)C2CC2)c(=O)o1 (centres unmarked)
3. CCC(Cc1ccccc1)c1cc(O)c(C(c2cccc(NC(=O)NCc3ccccc3)c2)C2CC2)c(=O)o1 (centres unmarked)
4. O=c1oc(CC(O)c2ccco2)cc(O)c1C(c1ccccc1)C1CC1 (centres unmarked)

Reply:
63.9
42.2
30
17

Fill in inhibition at 1.1 µM for each of the 4 compounds listed.
1. CCC(Cc1ccc(Cl)cc1)c1cc(O)c(C(c2ccccc2)C2CC2)c(=O)o1 (centres unmarked)
2. CCC(Cc1ccccc1)c1cc(O)c(C(c2cccc(NC(=O)Nc3ccc(OC)cc3)c2)C2CC2)c(=O)o1 (centres unmarked)
3. CCC(Cc1ccccc1)c1cc(O)c(C(c2cccc(NS(=O)(=O)/C=C/c3ccccc3)c2)C2CC2)c(=O)o1 (centres unmarked)
4. C=CC(C1=C(O)CC(CCc2ccccc2)(CC(C)C)OC1=O)c1ccccc1 (centres unmarked)

Reply:
[79.9, 32, 80.5, 64.9]

Briefly, inhibition at 1.1 µM measured for CCCC(CC1CCCOC1)c1cc(O)c(C(c2ccccc2)C2CC2)c(=O)o1 (centres unmarked) : 90.7
